Assay Target: HA of ca A/Texas/36/91 (H1N1) virus (influenza A virus)
Assay Name: cell-based or functional assay
Readout Name: Neutralization IC50, H1-TX91

Previously resolved entries follow.
Antibody 6 (antibody, V domains shown) VH: QVQLQQSGPGLVKPSQTLSLTCAISGDRVSSNSAVWNWIRQSPSRGLEWLGRTYYRSKWYYDYAESVKSRIVIDPDTSKNQVSLQLNSVTPEDSAIYYCARGGHITEFGLNIDAYDIWGQGAMVTVSS VL: DIQMTQSPSSLSASVGDRVTISCRAQSLSSYLHWYQQKPGQPPKLLIYAATTLQSGVPSRFSGSGSGTDFTLTISTFQAEDVATYYCQQSRTFGQGTKVEIK	2.2 µg/mL
Antibody 5 (antibody, V domains shown) VH: QVQLQQSGPGLVKPSQTLSLTCAISGDRVSSNSAVWNWIRQSPSRGLEWLGRTYYRSKWYYDYAESVKSRIVIDPDTSKNQVSLQLNSVTPEDSAIYYCARGGHITVFGLNIDAYDIWGQGAMVTVSS VL: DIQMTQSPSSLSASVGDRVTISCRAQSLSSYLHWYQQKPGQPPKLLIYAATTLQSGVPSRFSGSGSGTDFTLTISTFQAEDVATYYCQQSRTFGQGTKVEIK	0.76 µg/mL
Antibody 10 (antibody, V domains shown) VH: QVQLQQSGPGLVKPSQTLSLTCAISGDSVSSNSATWNWIRQSPSRGLEWLGRTYYRSKWYNDYADFLKRRITINPDTSNNEVSLRLTSVTPDDTALYYCARGGHITVFGVNIDAFDVWGQGTMVTVSS VL: DIQMTQSPSSLSASVGDRITISCRTSQSLRSYLHWYQQKPGKAPKLLIYASSTLQSGVPSRFSGSGSGTDFTLTISNLQPEDFATYYCQLSRTFGQGTKVEIK	0.48 µg/mL
Antibody 8 (antibody, V domains shown) VH: QVQLQQSGPGLVKPSQTLSLTCVISGDTVSSNRATWNWMRQSPLRGLEWLGRTYYRSKWYNDYAVSVKSRVVINPDTSKNQVSLQLNTVTPDDSGVYFCARGGHITVFGVNIDAFDIWGLGTKVTVSS VL: DIQMTQSPSSLSASVGDRVTISCRASQRLNSYLHWYQQTPGQAPKLLIYATSTLQSGVSPRFSGSGSGTDFTLTISSLQPEDVATYYCQLSRTFGHGTKVEIK	0.7 µg/mL

Lab note: next binder to report on.
Problem: Fill in the blank: the reported Neutralization IC50, H1-TX91 of Antibody 3 (antibody, V domains shown) VH: QVQLQESGPGLVKPSQTLSLTCAISGDSVSSNNAVWNWIRQSPSRGLEWLGRTYYRSKWYNDYAESVKSRITVNPDTSKNQFSLHLKSVTPEDTAVFYCVRSGHITVFGVNVDAFDMWGQGTMVTVSS VL: DIQMTQSPSSLSASVGDRVTITCRTSQSLSSYLHWYQQKPGKAPKLLIYAASSLQSGVPSRFSGSGSGTDFTLTISSLQPEDFATYYCQQSRTFGQGTKVEIK is ____.
Solution: 0.6 µg/mL
